These data points were gathered from patent US20240343803A1.

Biological target: T1, human PVRIG on FlpinCHO-PVRIG cells (human, UniProt Q6DKI7 41-326)
T1 construct: whole, on cells
T1 sequence (looked up): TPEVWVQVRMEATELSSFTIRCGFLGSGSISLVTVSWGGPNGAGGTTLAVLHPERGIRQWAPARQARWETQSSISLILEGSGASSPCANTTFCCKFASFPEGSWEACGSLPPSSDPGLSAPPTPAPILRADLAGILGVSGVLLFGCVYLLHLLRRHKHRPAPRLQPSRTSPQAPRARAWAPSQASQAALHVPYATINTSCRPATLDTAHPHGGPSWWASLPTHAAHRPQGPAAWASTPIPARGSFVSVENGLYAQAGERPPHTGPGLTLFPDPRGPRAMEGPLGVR
Assay: FACS, FlpinCHO-PVRIG cells
value-kind: AUC % to parental Ab (%)
Just the number in %, nothing appended.

Examples with answers:
>>> numeric_result("PVRIG-A118 (Fc fusion, heavy chain antibody VHH-hinge-CH2-CH3, human IgG1 constant part; not shown: human IgG1 hinge-CH2-CH3) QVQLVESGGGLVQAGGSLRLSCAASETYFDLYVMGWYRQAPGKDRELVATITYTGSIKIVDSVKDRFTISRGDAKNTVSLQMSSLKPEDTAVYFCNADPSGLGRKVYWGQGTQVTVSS")
100
>>> numeric_result("PVRIG-A118-H6 (Fc fusion, humanized variant of PVRIG-A118; also called A118.VH6; not shown: constant part not restated for the humanized forms; parents are VHH-hinge-CH2-CH3 of human IgG1; detected by anti-human) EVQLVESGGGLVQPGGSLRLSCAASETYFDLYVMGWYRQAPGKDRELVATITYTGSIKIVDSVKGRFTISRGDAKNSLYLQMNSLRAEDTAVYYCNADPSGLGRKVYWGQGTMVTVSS")
94.2

// sample PVRIG-A50-H1d (Fc fusion, humanized variant of PVRIG-A50; also called A50.VH1d; not shown: constant part not restated for the humanized forms; parents are VHH-hinge-CH2-CH3 of human IgG1; detected by anti-human) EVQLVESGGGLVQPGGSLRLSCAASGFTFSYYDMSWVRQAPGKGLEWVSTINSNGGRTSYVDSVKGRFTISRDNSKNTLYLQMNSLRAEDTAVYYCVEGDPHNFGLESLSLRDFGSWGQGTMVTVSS , its AUC % to parental Ab was 85.9

// sample PVRIG-A50-H2a (Fc fusion, humanized variant of PVRIG-A50; also called A50.VH2a; not shown: constant part not restated for the humanized forms; parents are VHH-hinge-CH2-CH3 of human IgG1; detected by anti-human) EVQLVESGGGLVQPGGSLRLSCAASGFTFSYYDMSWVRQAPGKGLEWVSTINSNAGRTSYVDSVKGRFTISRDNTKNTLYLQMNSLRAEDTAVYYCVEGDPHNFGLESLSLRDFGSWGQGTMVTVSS , its AUC % to parental Ab was 84.4
